Each recorded value in this set is attributed to ChEMBL document CHEMBL5058577.

System: U2OS
Test: Multiplex assay against U2OS
Type: toxicity, cell-based
Details: human, 24 h, 1 µM, compound concentration 1 uM, replicate 2
Give measured Population Apoptotic (%) for each item. Keep answers brief.
API: value field is a number in %; no unit string.

Query string: Entry under review: COc1cc2nc(N3CCN(C(=O)COc4c(OC)cccc4C(C)C)CC3)nc(N)c2cc1OC.Cl.Cl . Reported Population Apoptotic (%)?
Result string: 80

Query string: Entry under review: C=CCN1C[C@H](C(=O)N(CCCN(C)C)C(=O)NCC)C[C@@H]2c3cccc4[nH]cc(c34)C[C@H]21 . Reported Population Apoptotic (%)?
Result string: 64

Query string: Entry under review: CN(C)C(=O)Cn1cc(-c2ccc(-c3nnc4ccccn34)cc2)cn1 . Reported Population Apoptotic (%)?
Result string: 100

Query string: Entry under review: CCC(=O)OCC(=O)[C@@]1(OC(=O)CC)[C@@H](C)C[C@H]2[C@@H]3CCC4=CC(=O)C=C[C@]4(C)[C@@]3(Cl)[C@@H](O)C[C@@]21C [BECLOMETHASONE DIPROPIONATE] . Reported Population Apoptotic (%)?
Result string: 87

Query string: Entry under review: OCCCNc1cc(-c2ccnc(Nc3cccc(Cl)c3)n2)ccn1 . Reported Population Apoptotic (%)?
Result string: 94

* * *

Test system: Fibroblast
Assay: Multiplex assay against human fibroblast
Type: toxicity, cell-based
Settings: 48 h, 10 µM, compound concentration 10 uM, replicate 1
Non-standard residues stand in square brackets, D forms with d. Residues, ends and D or L forms follow the SMILES beside them.
metricName: Population Pyknosed Nuclei (%)
API: value field is a number in %; no unit string.

Query string: Entry under review: CC(C)C[C@@H]1NC(=O)[C@@H](C(C)C)NC(=O)[C@@H]2CCCN2C(=O)[C@@H](CC(=O)O)NC(=O)[C@@H](Cc2c[nH]c3ccccc23)NC1=O [BQ-123] (cyclo(L[dW][dD]P[dV])) . Reported Population Pyknosed Nuclei (%)?
Result string: 13

Query string: Entry under review: CN1CCN2c3ccccc3Cc3ccccc3C2C1.Cl (centres undefined) [MIANSERIN HYDROCHLORIDE] . Reported Population Pyknosed Nuclei (%)?
Result string: 12

Query string: Entry under review: Cc1cc(O)c(-c2ccc([C@@H](C)CN(C)C)cc2)c2c1[nH]c(=O)c1sccc12 . Reported Population Pyknosed Nuclei (%)?
Result string: 29

Query string: Entry under review: COc1cc2nc(N3CCN(C(=O)c4ccco4)CC3)nc(N)c2cc1OC.Cl [PRAZOSIN HYDROCHLORIDE] . Reported Population Pyknosed Nuclei (%)?
Result string: 6

* * *

Give measured Population Normal (%) for each item. Keep answers brief.
Tested on: Fibroblast
Assay: Multiplex assay against human fibroblast
Type: toxicity, cell-based
Conditions: 12 h, 10 µM, compound concentration 10 uM, replicate 1
API: value field is a number in %; no unit string.

Query string: Entry under review: Cc1c(Cc2ccc3ccccc3n2)c2cc(F)ccc2n1CC(=O)O . Reported Population Normal (%)?
Result string: 97

Query string: Entry under review: Cl.Cl.OCCOCCN1CCN(C(c2ccccc2)c2ccc(Cl)cc2)CC1 (stereo not drawn) [HYDROXYZINE HYDROCHLORIDE] . Reported Population Normal (%)?
Result string: 97

Query string: Entry under review: Cc1cc(O)c(-c2ccc([C@@H](C)CN(C)C)cc2)c2c1[nH]c(=O)c1sccc12 . Reported Population Normal (%)?
Result string: 93

Query string: Entry under review: CCC(=O)OCC(=O)[C@@]1(OC(=O)CC)[C@@H](C)C[C@H]2[C@@H]3CCC4=CC(=O)C=C[C@]4(C)[C@@]3(Cl)[C@@H](O)C[C@@]21C [BECLOMETHASONE DIPROPIONATE] . Reported Population Normal (%)?
Result string: 91

Query string: Entry under review: CCCCCCNC(=O)Nc1ccc(S(=O)(=O)Nc2ccc(CCNC[C@H](O)COc3ccc(O)cc3)cc2)cc1 . Reported Population Normal (%)?
Result string: 94

Query string: Entry under review: CN1CCN2c3ccccc3Cc3ccccc3C2C1.Cl (stereo not drawn) [MIANSERIN HYDROCHLORIDE] . Reported Population Normal (%)?
Result string: 94

Query string: Entry under review: CN(C)C/C=C/C(=O)Nc1ccc(C(=O)N2CCCC(Nc3ncc(Cl)c(-c4c[nH]c5ccccc45)n3)C2)cc1 (stereo not drawn) . Reported Population Normal (%)?
Result string: 95

Query string: Entry under review: O=c1nc2[nH]c3ccccc3nc-2c(=O)[nH]1 . Reported Population Normal (%)?
Result string: 95
